# SI (1): eqBChE selectivity index = IC50(eeAChE)/IC50(eqBChE) per record follows
- TESTED ON: eqBChE (equine butyrylcholinesterase) (Equus caballus, UniProt P81908)
- Construct: butyrylcholinesterase (eqBuChE, E.C. 3.1.1.8, from equine serum); purchased Sigma Aldrich; host or cells: equine serum
- Sequence (P81908 whole entry): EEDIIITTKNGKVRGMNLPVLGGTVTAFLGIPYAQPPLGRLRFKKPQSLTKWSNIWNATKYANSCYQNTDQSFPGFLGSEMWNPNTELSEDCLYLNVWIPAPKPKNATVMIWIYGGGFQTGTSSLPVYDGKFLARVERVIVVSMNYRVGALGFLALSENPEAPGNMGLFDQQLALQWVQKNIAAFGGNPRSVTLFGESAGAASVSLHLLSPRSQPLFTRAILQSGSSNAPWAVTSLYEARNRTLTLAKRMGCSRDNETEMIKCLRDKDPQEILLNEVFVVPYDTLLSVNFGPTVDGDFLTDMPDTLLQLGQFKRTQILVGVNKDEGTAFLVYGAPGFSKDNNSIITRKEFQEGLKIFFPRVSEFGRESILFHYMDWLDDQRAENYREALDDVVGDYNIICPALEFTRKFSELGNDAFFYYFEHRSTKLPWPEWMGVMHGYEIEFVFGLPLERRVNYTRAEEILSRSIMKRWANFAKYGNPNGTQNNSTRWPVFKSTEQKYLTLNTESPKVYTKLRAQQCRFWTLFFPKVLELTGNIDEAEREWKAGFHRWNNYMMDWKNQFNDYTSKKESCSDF
- ASSAY DETAILS: biochemical
Provide a numeric answer; units are not to be included.

Entry O=C(/C=C/C=C/c1ccc(O)c(O)c1)NCCCC[P+](c1ccccc1)(c1ccccc1)c1ccccc1.[Br-] needs its SI (1): eqBChE selectivity index = IC50(eeAChE)/IC50(eqBChE) filled in; supply it.
36

Identify measured SI (1): eqBChE selectivity index = IC50(eeAChE)/IC50(eqBChE) corresponding to O=C(/C=C/C=C/c1ccc2c(c1)OCO2)NCCCCCC[P+](c1ccccc1)(c1ccccc1)c1ccccc1.[Br-]
314

Item O=C(/C=C/c1ccc(O)c(O)c1)NCCCCCCCC[P+](c1ccccc1)(c1ccccc1)c1ccccc1 [AntiOXCIN3, reference compound] : provide SI (1): eqBChE selectivity index = IC50(eeAChE)/IC50(eqBChE)
16

Name the recorded SI (1): eqBChE selectivity index = IC50(eeAChE)/IC50(eqBChE) of the item O=C(/C=C/C=C/c1ccc2c(c1)OCO2)NCCCC[P+](c1ccccc1)(c1ccccc1)c1ccccc1.[Br-] in your answer.
226

Hello, please tell me recorded SI (1): eqBChE selectivity index = IC50(eeAChE)/IC50(eqBChE) for this one: O=C(/C=C/C=C/c1ccc(O)c(O)c1)NCCCCCC[P+](c1ccccc1)(c1ccccc1)c1ccccc1.[Br-]
62
